pIC50: −log10 of the molar value.
This section presents pIC50 values reported for Macrophage colony-stimulating factor 1 receptor (Homo sapiens) in the literature.

Here is how some compounds turned out for pIC50.
MOLECULE_SMILES: CS(=O)(=O)N1CC[C@H](Nc2ncc3cc(C#N)c(=O)n(C4CCCC4)c3n2)[C@H](F)C1
pIC50: 6.86

MOLECULE_SMILES: O=C(c1cccc(O)c1F)c1c[nH]c2ncc(-c3ccccc3)cc12
pIC50: ≥ 5.00

MOLECULE_SMILES: COCCCNc1ncnc2[nH]cc(C(=O)c3ccc(Nc4ccc(OC)nc4)nc3F)c12
pIC50: > 8.00

MOLECULE_SMILES: CCCS(=O)(=O)Nc1cccc(C(=O)c2c[nH]c3ncc(-c4cnn(C)c4)cc23)c1
pIC50: ≥ 5.00

Query block: Can you look up the measured pIC50 of c1ccc(Oc2cnc3[nH]ccc3c2)cc1 for me?
Result block: ≥ 5.00

Query block: Can you look up the measured pIC50 of Cc1cccc(C(=O)Nc2cccc([C@@H](C)Oc3cc(Cl)cnc3N)c2)c1 for me?
Result block: ≥ 7.30

Query block: Can you look up the measured pIC50 of O=C(c1cccc(OCc2c(F)cc(F)cc2F)c1OCC1CC1)c1c[nH]c2ncc(Cl)cc12 for me?
Result block: ≥ 5.00

Query block: Can you look up the measured pIC50 of COc1ccc(Nc2c[nH]c3ncccc23)cc1 for me?
Result block: ≥ 5.00

Query block: Can you look up the measured pIC50 of Cn1cc(-c2cc(Oc3ccc4nc(N[C@@H]5CCCC[C@H]5O)sc4c3)ccn2)cn1 for me?
Result block: 9.05

Query block: Can you look up the measured pIC50 of CCc1ccc(Nc2ccc(C(=O)c3c[nH]c4ncnc(NCCCOC)c34)c(F)n2)cn1 for me?
Result block: > 8.00

Query block: Can you look up the measured pIC50 of O=C(NCc1ccccc1)Nc1cccc(C(=O)c2c[nH]c3ncc(-c4cccnc4)cc23)c1 for me?
Result block: ≥ 5.00

----------
pIC50: −log10 of the molar value.
This section presents pIC50 values reported for Macrophage colony-stimulating factor 1 receptor (Homo sapiens) in the literature.

Here is how some compounds turned out for pIC50.
MOLECULE_SMILES: CN1CCN(S(=O)(=O)c2ccc(Nc3ncc4cc(C#N)c(=O)n(C5CCCC5)c4n3)cc2)CC1
pIC50: 8.26

MOLECULE_SMILES: CCCn1cc(-c2cc(Oc3ccc(NC(=O)N4CCC(C)(C)C4=O)nc3C)ccn2)cn1
pIC50: 7.33

MOLECULE_SMILES: COc1cc2nccc(Oc3cnc(NC(=O)c4cn(C5CCOCC5)cc(-c5ccc(F)cc5)c4=O)nc3)c2cc1OC
pIC50: > 6.70

MOLECULE_SMILES: Cc1nc(-c2cnc3n(c2=O)CC[C@@H](C)N3)ccc1Oc1ccnc(-c2cnn(C)c2)c1
pIC50: 6.53

MOLECULE_SMILES: COc1cc(NC(=O)Nc2cccc(C(=O)c3c[nH]c4ncccc34)c2)cc(C(F)(F)F)c1
pIC50: ≥ 5.00

Query block: Can you look up the measured pIC50 of CCCS(=O)(=O)Nc1ccc(F)c(C(=O)c2c[nH]c3ncc(-c4ccc(C(=O)NC5CC5)nc4)cc23)c1F for me?
Result block: ≥ 5.00

Query block: Can you look up the measured pIC50 of O=C(c1ccc(F)cc1F)c1c[nH]c2ncc(-c3cccnc3)cc12 for me?
Result block: ≥ 5.00

Query block: Can you look up the measured pIC50 of C[C@@H](Oc1cc(-c2cnn(C)c2)cnc1N)c1cccc(NC(=O)c2cccc(N(C)C)c2)c1 for me?
Result block: ≥ 7.30
